Molecular target: Bcl-2 loop domain (Homo sapiens)
Sequence (P10415 29-90 limits assumed): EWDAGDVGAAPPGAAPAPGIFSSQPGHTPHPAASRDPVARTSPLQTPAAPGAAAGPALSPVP
Test: NMR titration of 15N-13C labeled Bcl-2 loop domain (HSQC chemical shift perturbation)
Settings: Kd from chemical shift perturbation of His55, Hill model fit, 0.2 mM Bcl-2 loop titrated with 0.2-5.4 mM MTX
READOUT TYPE: Kd (mM)
Report as a plain number; the unit mM is understood.

Recorded Kd for CN(Cc1cnc2nc(N)nc(N)c2n1)c1ccc(C(=O)N[C@@H](CCC(=O)O)C(=O)O)cc1 [MTX] , please?
5.1

====

Target: Bcl-2 loop domain (Homo sapiens)
Test: NMR titration of 15N-13C labeled Bcl-2 loop domain (HSQC chemical shift perturbation)
Conditions: Kd from chemical shift perturbation of His58, Hill model fit, 0.2 mM Bcl-2 loop titrated with 0.2-5.4 mM MTX
READOUT TYPE: Kd (mM)
Report as a plain number; the unit mM is understood.

Recorded Kd for CN(Cc1cnc2nc(N)nc(N)c2n1)c1ccc(C(=O)N[C@@H](CCC(=O)O)C(=O)O)cc1 [MTX] , please?
11.4

====

System: Bcl-2 low and high expressing Jurkat lymphoma cells (Jurkat/Vector, Jurkat/Bcl-2)
Assay: Cell viability in Bcl-2 low and high expressing Jurkat cells
Type: cell-based, human
Settings: Homo sapiens; Jurkat lymphoma cells, 72 hours; n/d means no reduction was detected at concentrations tested; read-out: Lowest effective dose (minimal effective concentration that induced Bcl-2-dependent reduction in cell viability)
Returns: string. Value is satisfied if measured minimal effective concentration is below 0.01 µM, and not satisfied if it is greater than or equal to it.

Record `CN(Cc1cnc2nc(N)nc(N)c2n1)c1cc(Cl)c(C(=O)N[C@@H](CCC(=O)O)C(=O)O)c(Cl)c1` : is its minimal effective concentration strictly below 0.01 µM?
not satisfied

// repeat for `CN(Cc1cnc2nc(N)nc(N)c2n1)c1c(Cl)cc(C(=O)N[C@@H](CCC(=O)O)C(=O)O)cc1Cl` and report
satisfied

// repeat for `CN(Cc1cnc2nc(N)nc(N)c2n1)c1ccc(C(=O)N[C@@H](CCC(=O)O)C(=O)O)c2ccccc12` and report
satisfied

// repeat for Nc1nc(N)c2nc(CC3CCCc4cc(C(=O)N[C@@H](CCC(=O)O)C(=O)O)ccc43)cnc2n1 (stereo partly shown) and report
not satisfied

// repeat for `Nc1nc(N)c2nc(CNc3ccc(C(=O)N[C@@H](CC(=O)O)C(=O)O)cc3)cnc2n1` and report
not satisfied
